- System: CP305
- ASSAY_PROCEDURE: qHTS profiling for inhibitors of Plasmodium falciparum proliferation (AID 504749); also: nearly all actives have a fitted effect of over 60% in size
- CONDITION_LABEL: P. falciparum in erythrocytes, SYBR Green DNA, 72 h; series mostly up to 28.7 µM
Inconclusive results are not listed. Activity calls are given as the source filed them. Calls follow the shape of the dose curve; as a rule, active = well fitted inhibition curve with a large enough effect; inconclusive = small, poorly fitted or top-dose-only effect; inactive = flat fitted curve, though single readings scatter.
PROPERTY_MEASURED: outcome

sample_smiles=Cc1cc(OI)c(C(C)C)cc1-c1cc(C(C)C)c(OI)cc1C study_system=CP305 property_measured=outcome readout_value=inactive
sample_smiles=O=C(Cn1ccnc1[N+](=O)[O-])NCCO study_system=CP305 property_measured=outcome readout_value=inactive
sample_smiles=O=C1c2ccccc2C(=O)C1c1ccc(Br)cc1 study_system=CP305 property_measured=outcome readout_value=inactive
